# Tested on: Escherichia coli TOP10
# PROTOCOL DESCRIPTION: shrunken log2 fold change of peptide-encoding DNA abundance (4.5 h post-induction vs induction); higher = less antimicrobial activity (less host growth inhibition)
# STUDY CONDITIONS: time post-induction: 4.5 h; library: site-saturation at positions 5, 18, 19, 20
Entries and their measured shrunken log2 fold change follow.
# print the numeric value only

Sample records with shrunken log2 fold change:
- RRIRRRPPRLPRPRPRPVGYPRP: 0.02
- RRIRWRPPRLPRPRPRPCRRPRP: 0.0574
- RRIRIRPPRLPRPRPRPTHPPRP: 0.225
- RRIRGRPPRLPRPRPRPSKWPRP: -0.158
- RRIRDRPPRLPRPRPRPSAVPRP: 0.291

## Input Report measured shrunken log2 fold change on Escherichia coli TOP10; entry: RRIRCRPPRLPRPRPRPKGIPRP
## Output 0.0519

## Input Report measured shrunken log2 fold change on Escherichia coli TOP10; entry: RRIRFRPPRLPRPRPRPVGIPRP
## Output -0.135

## Input Report measured shrunken log2 fold change on Escherichia coli TOP10; entry: RRIRLRPPRLPRPRPRPITIPRP
## Output 0.0213

----------
# Test system: Escherichia coli TOP10
# PROTOCOL DESCRIPTION: shrunken log2 fold change of peptide-encoding DNA abundance (4.5 h post-induction vs induction); higher = less antimicrobial activity (less host growth inhibition)
# STUDY CONDITIONS: time post-induction: 4.5 h; library: site-saturation at positions 5, 18, 19, 20
Entries and their measured shrunken log2 fold change follow.

Sample records with shrunken log2 fold change:
- RRIRRRPPRLPRPRPRPKNWPRP: 0.381
- RRIRVRPPRLPRPRPRPFRCPRP: -0.123
- RRIRWRPPRLPRPRPRPQITPRP: -0.216
- RRIRKRPPRLPRPRPRPSRCPRP: 0.392
- RRIRYRPPRLPRPRPRPHHWPRP: -0.892
- RRIRKRPPRLPRPRPRPRARPRP: 0.776
- RRIRDRPPRLPRPRPRPNEVPRP: 0.0348

// next entry
## Input Return the recorded shrunken log2 fold change value; entry: RRIRQRPPRLPRPRPRPWTYPRP
## Output 0.0804

----------
# System: Escherichia coli TOP10;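 note: peptides expressed intracellularly from a pBAD plasmid library in pooled LB shake-flask culture, induced with 0.3% L-arabinose, DNA abundance read by NGS, three biological replicates, DESeq2 with apeglm shrinkage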
# PROTOCOL DESCRIPTION: shrunken log2 fold change of peptide-encoding DNA abundance (4.5 h post-induction vs induction); higher = less antimicrobial activity (less host growth inhibition)
# STUDY CONDITIONS: time post-induction: 4.5 h; library: site-saturation at positions 5, 18, 19, 20
Assign classes using reported shrunken log2 fold change values and the ranges interval 1 = under -0.1, interval 2 = from -0.1 up to 0.02, interval 3 = 0.02 and over, please.

- RRIRSRPPRLPRPRPRPTQHPRP: interval 3
- RRIRRRPPRLPRPRPRPTVNPRP: interval 3
- RRIRTRPPRLPRPRPRPMAMPRP: interval 3

## Input Would you mind sorting RRIRSRPPRLPRPRPRPIMEPRP into the appropriate category?
## Output interval 1

## Input Would you mind sorting RRIRYRPPRLPRPRPRPKNAPRP into the appropriate category?
## Output interval 1

## Input Would you mind sorting RRIRCRPPRLPRPRPRPWVMPRP into the appropriate category?
## Output interval 1

## Input Would you mind sorting RRIRVRPPRLPRPRPRPFSFPRP into the appropriate category?
## Output interval 3

## Input Would you mind sorting RRIRFRPPRLPRPRPRPNWCPRP into the appropriate category?
## Output interval 1
